biological target: the molecule itself; assay: SEC; Superdex 200 10/300, 0.5 ml min^−1, 1 mg ml^−1 protein, 100 μl injected; 50 mM NaCl, 50 mM KCl, 50 mM K2HPO4 pH 7.4; 30 °C; fractions as areas under the peaks; peaks also viewed by TEM
Observable: fraction of the protein in I peak of the elution profile

>>> value_observed("full-length recombinant AlIbpA (small heat shock protein IbpA from Acholeplasma laidlawii), His6-tagged (natural protein, UniProt A9NFB2 1-137, looked up, small heat shock protein IbpA (AlIbpA) of Acholeplasma laidlawii PG8, full length; Legends call it AlIbpA-His6, the methods say the His6 tag is N-terminal; In solution a mixture of about 24-mer globules, fibrils and agglomerates; also called AlIbpA-His6; His6-IbpA; source: E. coli BL21(DE3), purified (Ni-NTA); also in E. coli BL21 pET-IbpA cells, cross-linked in the cells, crude cell extract; not …) MLSLLNKNRSFFDDFFEDFNVLNPVTTSNLMRTDIKETQNGYSLSVELPGFKKEDVKVSLEDGYLTIEAHTSKNSETKDQATKYIRKERYEGTMKRSYYVGNLHLDEINGTFENGMLHIELPKETKKEPEKRYLELK")
"23%"
>>> value_observed("AlIbpASEPΔN25 (domain or fragment, Acholeplasma laidlawii, UniProt A9NFB2 26-137, looked up, AlIbpA of Acholeplasma laidlawii PG8 lacking 25 N-terminal amino acids and with LEL substituted by SEP (L134S, L136P); source: E. coli BL21(DE3), purified (Ni-NTA); not shown: His6, N-terminal, kept) TTSNLMRTDIKETQNGYSLSVELPGFKKEDVKVSLEDGYLTIEAHTSKNSETKDQATKYIRKERYEGTMKRSYYVGNLHLDEINGTFENGMLHIELPKETKKEPEKRYSEPK")
"69%"
